# method: Toxicity XTT in MRC-5 (229E cytoprotection assay)
# study.conditions: human
assay.readout: CC50 at 6 days

stdin: Specify measured CC50 at 6 days for COc1ccc(-c2c(Cc3ccc(OCCN4CCCCC4)cc3)c3ccc(OC)cc3n2C)cc1 .
stdout: > 5 µM

###

# method: XTT cell viability assay, Huh-luc/neo-ET
# Assay type: cell-based
# study.conditions: human, Huh-luc/neo-ET cells, read-out: HCV 1b - TC50
assay.readout: CC50 at 72 h

stdin: Specify measured CC50 at 72 h for COc1ccc(-c2c(Cc3ccc(OCCN4CCCCC4)cc3)c3ccc(OC)cc3n2C)cc1 .
stdout: > 10 µM
